# system: Insulin receptor (Homo sapiens)
# Sequence (P06213 28-758 limits assumed): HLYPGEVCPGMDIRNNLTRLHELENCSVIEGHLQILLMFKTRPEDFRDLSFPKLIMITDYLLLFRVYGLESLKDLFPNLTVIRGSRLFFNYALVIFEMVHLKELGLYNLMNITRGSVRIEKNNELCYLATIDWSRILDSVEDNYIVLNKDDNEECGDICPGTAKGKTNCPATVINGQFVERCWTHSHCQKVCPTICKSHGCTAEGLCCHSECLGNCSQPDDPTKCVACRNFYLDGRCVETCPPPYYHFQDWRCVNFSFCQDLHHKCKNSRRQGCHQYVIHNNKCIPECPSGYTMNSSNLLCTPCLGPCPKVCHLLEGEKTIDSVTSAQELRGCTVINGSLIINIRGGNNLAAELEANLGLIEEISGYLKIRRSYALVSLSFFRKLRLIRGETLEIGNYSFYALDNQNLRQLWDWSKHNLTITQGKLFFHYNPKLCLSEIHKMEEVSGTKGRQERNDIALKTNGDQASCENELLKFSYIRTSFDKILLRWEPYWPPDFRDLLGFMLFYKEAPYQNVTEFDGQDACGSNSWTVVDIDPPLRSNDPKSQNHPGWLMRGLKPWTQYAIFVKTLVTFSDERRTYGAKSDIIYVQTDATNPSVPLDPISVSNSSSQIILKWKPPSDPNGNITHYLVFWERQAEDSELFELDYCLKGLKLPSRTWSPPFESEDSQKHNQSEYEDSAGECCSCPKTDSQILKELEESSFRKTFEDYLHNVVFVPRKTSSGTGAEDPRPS
# Sequence (P06213 763-1382 limits assumed): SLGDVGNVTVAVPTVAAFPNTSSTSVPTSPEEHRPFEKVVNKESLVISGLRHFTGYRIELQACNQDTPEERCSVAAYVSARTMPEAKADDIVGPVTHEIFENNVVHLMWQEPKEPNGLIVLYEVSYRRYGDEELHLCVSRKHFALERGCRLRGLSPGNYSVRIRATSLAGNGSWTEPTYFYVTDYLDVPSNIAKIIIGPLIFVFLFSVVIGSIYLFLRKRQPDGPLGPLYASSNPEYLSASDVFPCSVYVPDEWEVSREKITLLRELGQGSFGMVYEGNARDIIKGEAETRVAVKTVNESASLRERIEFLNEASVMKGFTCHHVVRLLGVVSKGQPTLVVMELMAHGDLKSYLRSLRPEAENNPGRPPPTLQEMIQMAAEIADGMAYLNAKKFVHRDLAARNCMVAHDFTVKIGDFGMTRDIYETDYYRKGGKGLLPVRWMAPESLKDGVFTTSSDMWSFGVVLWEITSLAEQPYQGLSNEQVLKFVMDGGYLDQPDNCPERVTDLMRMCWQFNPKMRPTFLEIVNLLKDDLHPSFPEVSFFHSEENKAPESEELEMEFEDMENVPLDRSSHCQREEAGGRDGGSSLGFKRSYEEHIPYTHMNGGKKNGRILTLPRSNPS
# test.details: Inhibition of recombinant InsR (unknown origin) using poly-Glu-Tyr peptide as substrate
pIC50: −log10 of the molar value.
metric.name: pIC50

(A) Nc1ccccc1NC(=O)c1ccc(COc2ccc3ncnc(Nc4cccc(Br)c4)c3c2)cc1
(B) C#Cc1cccc(Nc2ncnc3ccc(S(=O)(=O)n4ccc(/C=C/C(=O)Nc5ccccc5N)c4)cc23)c1
Qu. Of A and B , which carries the smaller reported pIC50 figure? Answer with the label corresponding to your selection.
Ans. A

(a) C#Cc1cccc(Nc2ncnc3ccc(S(=O)(=O)n4ccc(/C=C/C(=O)NO)c4)cc23)c1
(b) C#Cc1cccc(Nc2ncnc3ccc(OCc4ccc(C(=O)Nc5ccccc5N)cc4)cc23)c1
Qu. For the two items a and b , which reports the higher pIC50 value? Answer with the label corresponding to your selection.
Ans. b
